Quick reference for T/C among some molecules
System: L1210 leukemia ip in BDF1 mice, survival T/C
assayInfo: NCI In Vivo Anticancer Drug Screen. Data for tumor model L1210 Leukemia (intraperitoneal) in B6D2F1 (BDF1) mice
studyConditions: endpoint: mean survival time; dose: 400.0 mg/kg/injection; schedule: Q01DX009 (ip); vehicle: Klucel (hydroxypropylcellulose) (HPC); higher = longer survival
Inconclusive results and toxic doses are left out.
resultType: T/C

> print(dat)
                                    molecule  experimentalvalue
 1       CN(C)/C=C/C(=O)c1ccccc1[N+](=O)[O-]   103 % of control
 2       CCc1ccc(NC(=O)Nc2ccc(Cl)c(Cl)c2)cc1   103 % of control
 3  O=C(N/N=C/c1ccc(Cl)cc1)c1ccccc1NC(=O)C1CC1   103 % of control
 4  COC(=O)C1OC1C(=O)OC (stereo unspecified)   102 % of control
 5       CCC(C)NC(=O)NC (stereo unspecified)   101 % of control
 6                    CC(=O)/C=C/c1ccc(O)cc1   100 % of control
 7  Cc1ccc(N=C(c2ccc([N+](=O)[O-])cc2)c2ccc([N+](=O)[O-])cc2)cc1   102 % of control
 8            COc1ccc2c(n1)Sc1c(N)nc(N)nc1N2    88 % of control
 9                   COc1ccccc1/C=C/c1cnccn1    93 % of control
10               COc1cc(C)ccc1C(=O)CCCC(=O)O    98 % of control
11  c1ccc(CN=C2c3ccccc3C3(c4ccccc4)C2N3Cc2ccccc2)cc1 (stereo unspecified)   103 % of control
12                CCc1ccccc1NC(=O)Nc1ccccc1C    87 % of control
13                     CCCCNC(=O)/C=C\C(=O)O   100 % of control
14                   Nc1cc(N)cc(Cc2ccccc2)c1    92 % of control
15  O=C(N/N=C/c1ccccc1Cl)c1ccccc1NC(=O)C1CC1   101 % of control
16  O=[N+]([O-])c1ccc(C2OC2c2ccccc2)cc1 (stereo unspecified)    95 % of control
17        CCOC(=O)c1ccc(NC(=S)NCc2cccnc2)cc1   102 % of control
18  Nc1ccc(C(=O)Oc2ccc([N+](=O)[O-])cc2)c(O)c1    87 % of control
19  Cc1cccc(NC(=O)NC2CCC(CC3CCCCC3)CC2)c1 (stereo unspecified)    95 % of control
20  CN(Cc1ccccc1)C(=O)c1cccc([N+](=O)[O-])c1    95 % of control
21  N#CC(CC(=O)c1ccc2c(c1)OCO2)c1ccc2c(c1)OCO2 (stereo unspecified)    97 % of control
22           CCCCCCn1c(O)c(C=N)c(=O)[nH]c1=O    97 % of control
23  O=C(Nc1ccccc1C(F)(F)F)N(Cc1ccccc1)c1ccccc1    98 % of control
24           CCN(CC)S(=O)(=O)c1ccc(OC)c(N)c1   104 % of control
25                O=C(O)CC(c1ccccc1)c1ccccc1   109 % of control
26  COC(=O)c1cc(Cl)ccc1OCC(=O)Nc1cccc([N+](=O)[O-])c1   104 % of control
